molecular target: Neuronal acetylcholine receptor; alpha4/beta2 (Homo sapiens, UniProt P17787+P43681); test: Binding affinity towards nicotinic acetylcholine receptor alpha4-beta2
Sequence (P17787 whole entry): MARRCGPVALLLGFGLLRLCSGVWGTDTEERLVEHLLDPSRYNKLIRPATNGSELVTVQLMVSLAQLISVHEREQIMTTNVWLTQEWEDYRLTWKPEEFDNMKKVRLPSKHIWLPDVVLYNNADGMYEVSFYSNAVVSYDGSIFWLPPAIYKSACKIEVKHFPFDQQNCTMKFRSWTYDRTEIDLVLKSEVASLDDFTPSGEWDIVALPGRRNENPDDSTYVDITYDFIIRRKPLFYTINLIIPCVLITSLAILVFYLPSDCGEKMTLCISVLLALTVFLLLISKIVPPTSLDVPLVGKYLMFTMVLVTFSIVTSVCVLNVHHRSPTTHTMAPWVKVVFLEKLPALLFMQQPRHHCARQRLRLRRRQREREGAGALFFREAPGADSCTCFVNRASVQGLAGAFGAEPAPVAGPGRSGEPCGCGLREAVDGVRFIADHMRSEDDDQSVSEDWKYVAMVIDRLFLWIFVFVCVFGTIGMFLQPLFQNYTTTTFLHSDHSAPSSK
Sequence (P43681 whole entry): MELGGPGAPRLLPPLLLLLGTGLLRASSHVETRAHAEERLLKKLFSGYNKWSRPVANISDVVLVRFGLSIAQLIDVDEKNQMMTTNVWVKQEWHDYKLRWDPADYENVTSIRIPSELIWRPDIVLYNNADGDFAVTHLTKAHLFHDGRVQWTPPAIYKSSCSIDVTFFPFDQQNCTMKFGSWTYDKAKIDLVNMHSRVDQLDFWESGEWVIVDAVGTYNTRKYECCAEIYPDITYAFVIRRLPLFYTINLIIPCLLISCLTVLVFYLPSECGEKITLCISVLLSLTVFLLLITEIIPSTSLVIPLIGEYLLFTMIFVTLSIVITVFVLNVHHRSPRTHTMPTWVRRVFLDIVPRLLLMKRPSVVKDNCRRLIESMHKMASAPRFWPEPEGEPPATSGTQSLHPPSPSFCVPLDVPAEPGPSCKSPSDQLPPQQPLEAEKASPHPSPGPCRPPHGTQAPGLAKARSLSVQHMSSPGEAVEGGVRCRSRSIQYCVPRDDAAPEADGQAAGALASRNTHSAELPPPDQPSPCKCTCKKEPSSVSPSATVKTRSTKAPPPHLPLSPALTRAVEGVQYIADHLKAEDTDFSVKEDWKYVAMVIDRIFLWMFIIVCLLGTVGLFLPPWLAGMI
quantityMeasured: pKi
Remember the convention: pKi equals -log10 of concentration in molar.

structureSmiles	pKi
CNCC#Cc1cccnc1	5.64

// switching to the query molecule
The recorded pKi for entry `CNCC/C=C/c1cccnc1` equals 7.60

====

Ki values, listed per item
molecular target: Neuronal acetylcholine receptor alpha4/beta2 (Rattus norvegicus); assay: Binding affinity towards nicotinic acetylcholine receptor alpha4-beta2 from rat brain homogenates
Your answer is read as nM, so omit the unit and give the number.

Examples with their reported Ki follow.
structureSmiles	Ki, nM
CCN(C)Cc1cccnc1	28
C[N+](C)(C)CCC#Cc1cccnc1	470
C[N+](C)(C)Cc1cccnc1	110

// switching to the query compound
Form field, Ki with Neuronal acetylcholine receptor alpha4/beta2 (Rattus norvegicus), item `CN(C)CCC#Cc1cccnc1` : 510

====

molecular target: Neuronal acetylcholine receptor alpha4/beta2 (Rattus norvegicus); experiment: Binding affinity towards nicotinic acetylcholine receptor alpha4-beta2 from rat brain homogenates
quantityMeasured: Ki (nM)
Your answer is read as nM, so omit the unit and give the number.

structureSmiles	Ki, nM
CNCCC#Cc1ccc(Cl)nc1	154

The recorded Ki for entry `CN(C)Cc1cccnc1` equals 540

The recorded Ki for entry `C[N+](C)(C)CCOc1cccnc1` equals 0.5

====

target: Neuronal acetylcholine receptor alpha4/beta2 (Rattus norvegicus); experiment: Binding affinity towards nicotinic acetylcholine receptor alpha4-beta2 from rat brain homogenates
Ki values, listed per item
Your answer is read as nM, so omit the unit and give the number.

structureSmiles	assayTarget	Ki, nM
c1cncc(OCCN2CCCC2)c1	Neuronal acetylcholine receptor alpha4/beta2 (Rattus norvegicus)	212

Form field, Ki with Neuronal acetylcholine receptor alpha4/beta2 (Rattus norvegicus), item `CNCCOc1cccnc1` : 35

Form field, Ki with Neuronal acetylcholine receptor alpha4/beta2 (Rattus norvegicus), item `c1cncc(CN2CCCC2)c1` : 30

Form field, Ki with Neuronal acetylcholine receptor alpha4/beta2 (Rattus norvegicus), item `CN(C)CCOc1cccnc1` : 21
